- system-tested: human STAT6/pIL-4Rα (Homo sapiens, UniProt P42226)
- Construct: histidine tag
- Sequence (P42226 123-658): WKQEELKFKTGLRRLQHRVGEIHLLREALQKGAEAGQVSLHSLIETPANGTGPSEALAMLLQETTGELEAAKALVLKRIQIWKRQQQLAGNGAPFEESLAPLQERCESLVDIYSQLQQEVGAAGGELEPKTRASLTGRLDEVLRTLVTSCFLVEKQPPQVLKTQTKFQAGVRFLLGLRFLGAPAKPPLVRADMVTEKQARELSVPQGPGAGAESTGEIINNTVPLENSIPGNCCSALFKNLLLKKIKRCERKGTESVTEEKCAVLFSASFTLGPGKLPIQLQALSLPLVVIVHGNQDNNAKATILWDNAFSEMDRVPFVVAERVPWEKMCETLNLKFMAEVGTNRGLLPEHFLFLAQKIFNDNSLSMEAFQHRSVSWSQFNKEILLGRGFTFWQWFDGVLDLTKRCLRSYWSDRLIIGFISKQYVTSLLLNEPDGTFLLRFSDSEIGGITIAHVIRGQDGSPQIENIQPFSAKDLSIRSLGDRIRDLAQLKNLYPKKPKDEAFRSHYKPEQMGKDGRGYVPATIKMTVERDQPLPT
- protocol-details: Binding inhibitory activity between human STAT6/pIL-4Rα by fluorescence polarization method
- condition-context: rhSTAT6 (123-658) / FAM-pIL-4Rα peptide
attribute-measured: IC50 (nM)

Observe how each entry below is paired with its result.
CCn1c(-c2ccc(-n3c(C)nn(C)c3=O)cc2F)cc2ccnc(C(=O)Nc3cccc(C(N)=O)c3F)c21    310
COCCn1c(-c2ccc(N3C(=O)C(C)CC3C)cc2)cc2ccnc(C(=O)Nc3ccc(F)c(C(N)=O)c3)c21 (centres unmarked)    280
CCn1c(-c2ccc(-n3c(C)nn(C)c3=O)cc2)cc2cc(C(F)(F)F)cc(C(=O)Nc3cccc(C(N)=O)c3F)c21    250
COCCn1c(-c2ccc(N3C(=O)C(C)CC3C)cc2)cc2cc(C(F)(F)F)nc(C(=O)Nc3cccc(C(N)=O)c3)c21 (centres unmarked)    520
CCn1c(-c2ccc(-n3c(C)nn(C)c3=O)cc2)cc2ccnc(C(=O)Nc3cccc(C(=O)Nc4cc(Cl)n(C)n4)c3)c21    410

P. CCn1c(-c2ccc(N3C(=O)C(C)CC3C)cc2)nc2cc(C(F)(F)F)cc(C(=O)Nc3cccc(C(N)=O)c3F)c21 (centres unmarked) [Ex. 218]
Q. COCCn1c(-c2ccc(-n3c(C)nn(C)c3=O)cc2)cc2cc(C(F)(F)F)cc(C(=O)Nc3ccc4c(c3)C(=O)NCC4)c21
R. COCCn1c(-c2ccc(-n3c(C)nn(C)c3=O)cc2)cc2cc(C(F)(F)F)cc(C(=O)Nc3cccc(C(N)=O)c3F)c21
S. CCn1c(-c2ccc(-n3c(C)nn(C)c3=O)nc2)cc2cccc(C(=O)Nc3cccc(C(N)=O)c3F)c21
Sequence the entries by IC50, beginning with the highest number. Output spec: labels arranged per the requested ranking.
P, Q, S, R

a. COCCn1c(-c2ccc(-n3c(C)nn(C)c3=O)cc2)cc2cc(C(F)(F)F)cc(C(=O)Nc3ccnnc3)c21
b. Cc1nn(C)c(=O)n1-c1ccc(-c2cc3cccc(C(=O)Nc4ccc(F)c(C(N)=O)c4)c3n2CC2CC2)cc1
c. COCCn1c(-c2ccc(-n3c(C)nn(C)c3=O)cc2)cc2cc(C(F)(F)F)cc(C(=O)Nc3nnc(C)s3)c21
Please list the entries, largest IC50 first. Give your ranking as a list of the labels in the requested order.
b, a, c
(b: 610 nM, a: 420 nM, c: 240 nM)

###

- system-tested: human STAT6/pIL-4Rα (Homo sapiens, UniProt P42226)
- Construct: histidine tag
- protocol-details: Binding inhibitory activity between human STAT6/pIL-4Rα by fluorescence polarization method
- condition-context: rhSTAT6 (123-658) / FAM-pIL-4Rα peptide
attribute-measured: IC50 (nM)

CCn1c(-c2ccc(NC(C)=O)cc2)cc2ccnc(C(=O)Nc3ccc(F)c(C(=O)NCC#N)c3)c21 [Ex. 149]    330
COCCn1c(-c2ccc(-n3c(C)nn(C)c3=O)cc2)cc2cc(C(F)(F)F)cc(C(=O)Nc3cccc(N)n3)c21 [Ex. 95]    280
CCn1c(-c2ccc(-n3ncn(C)c3=O)cc2)cc2cccc(C(=O)Nc3ccc(F)c(C(N)=O)c3)c21 [Ex. 156]    400
COCCn1c(-c2ccc3c(c2)CCOC3C(N)=O)nc2cc(C(F)(F)F)cc(C(=O)Nc3cccc(C(N)=O)c3)c21 (centres unmarked) [Ex. 36]    400
COCCn1c(-c2ccc(-n3c(C)nn(C)c3=O)cc2)cc2cc(C(F)(F)F)cc(C(=O)Nc3ccc(C)nc3)c21 [Ex. 73]    370
COCCn1c(-c2ccc(-n3c(C)nn(C)c3=O)cc2)cc2cc(C(F)(F)F)cc(C(=O)Nc3cccc(C(=O)Nc4cccn(C)c4=O)c3)c21 [Ex. 175]    400

A. CCn1c(-c2ccc(-n3c(C)nn(C)c3=O)cc2)cc2cc(F)cc(C(=O)Nc3ccc(F)c(C(N)=O)c3)c21 [Ex. 18]
B. COCCn1c(-c2ccc(N(C)C(C)=O)cc2)nc2cc(C3CC3)cc(C(=O)Nc3cccc(C(N)=O)c3)c21 [Ex. 208]
C. CCn1c(-c2ccc(-n3c(C)nn(C)c3=O)cc2)cc2ccnc(C(=O)Nc3cccc(C(=O)Nc4cc(C)cn(C)c4=O)c3)c21 [Ex. 165]
D. COCCn1c(-c2ccc3c(c2)CCOC3C(=O)O)nc2cc(C(F)(F)F)cc(C(=O)Nc3cccc(C(N)=O)c3)c21 (centres unmarked) [Ex. 29]
Order the records by IC50, with each subsequent value no larger than the one before. Arrange the labels as the request states and list them.
B, D, A, C
(B: 2080 nM, D: 840 nM, A: 350 nM, C: 200 nM)

1. CCn1c(-c2ccc(-n3c(C)nn(C)c3=O)cc2)cc2c(C(F)(F)F)ccc(C(=O)Nc3ccc(F)c(C(N)=O)c3)c21 [Ex. 30]
2. CCn1c(-c2ccc(N3CCOCC3=O)cc2)cc2cc(C(F)(F)F)cc(C(=O)Nc3ccc(F)c(C(N)=O)c3)c21 [Ex. 31]
For the two items 1 and 2 , which reports the higher IC50 value? Your answer should be the label of the entry you select.
2
